study.system: KRas-mediated phosphorylation of ERK in H358 cells (Homo sapiens, UniProt P01116, G12C)
Construct: pERK HTRF read-out
Sequence (P01116 1-188 isoform P01116-2 G12C): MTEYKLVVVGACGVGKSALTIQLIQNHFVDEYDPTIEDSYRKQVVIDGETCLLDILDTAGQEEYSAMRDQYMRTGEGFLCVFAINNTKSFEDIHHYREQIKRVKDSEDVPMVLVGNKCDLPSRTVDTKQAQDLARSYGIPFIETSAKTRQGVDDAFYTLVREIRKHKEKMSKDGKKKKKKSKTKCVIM
protocol.notes: Inhibition of KRas-mediated phosphorylation of ERK (HTRF), H358 cells
Assay type: cell-based
assay.setup: HTRF pERK, 3 h incubation
For each record, check the reported IC50: if it is below 200 nM write YES, else write NO.

Confirm or reject: IC50 of CCc1c(F)ccc2cc(O)cc(-c3ncc4c(N5CCC(C(=O)n6cc(C(C)(C)C)cn6)CC5)nc(OC[C@@]56CCCN5C[C@H](F)C6)nc4c3F)c12 lies strictly below 200 nM NO

Confirm or reject: IC50 of CCc1c(F)ccc2cc(O)cc(-c3ncc4c(N5CCCCC(C(=O)n6ccc(C)n6)CC5)nc(OC[C@@]56CCCN5C/C(=C\F)C6)nc4c3F)c12 (stereo partly drawn) lies strictly below 200 nM YES

Confirm or reject: IC50 of Cc1ccn(C(=O)[C@@H]2C[C@H]2CNc2nc(OC[C@@]34CCCN3C[C@H](F)C4)nc3c(F)c(-c4ccc(F)c5sc(N)c(C#N)c45)c(Cl)cc23)n1 lies strictly below 200 nM YES

Confirm or reject: IC50 of CCc1c(F)ccc2cc(O)cc(-c3ncc4c(N5CCC(C(=O)n6ccc(C(C)C)n6)CC5)nc(OC[C@@]56CCCN5C[C@H](F)C6)nc4c3F)c12 lies strictly below 200 nM NO

Confirm or reject: IC50 of CN(CCCC(=O)Oc1cccc(F)c1)c1nc(OC[C@@]23CCCN2C[C@H](F)C3)nc2c(F)c(-c3ccc(F)c4sc(N)c(C#N)c34)c(Cl)cc12 lies strictly below 200 nM YES

Confirm or reject: IC50 of Cc1ccn(C(=O)C2CCCN(c3nc(OCC4(CN(C)C)CC4)nc4c(F)c(-c5ccc(F)c6sc(N)c(C#N)c56)c(Cl)cc34)CC2)n1 (stereo not drawn) lies strictly below 200 nM YES

----------
study.system: KRas-mediated phosphorylation of ERK in MKN1 cells (Homo sapiens, UniProt P01116)
Construct: pERK HTRF read-out
Sequence (P01116 1-188 isoform P01116-2): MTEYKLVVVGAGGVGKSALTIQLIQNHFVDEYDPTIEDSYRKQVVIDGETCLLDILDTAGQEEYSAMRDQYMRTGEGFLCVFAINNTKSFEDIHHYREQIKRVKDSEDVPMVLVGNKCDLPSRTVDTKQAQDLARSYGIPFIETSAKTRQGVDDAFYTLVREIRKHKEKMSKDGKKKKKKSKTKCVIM
protocol.notes: Inhibition of KRas-mediated phosphorylation of ERK (HTRF), MKN1 cells
Format: cell-based
assay.setup: MKN1 cells (KRas WT); HTRF pERK; 3 h incubation
property.name: IC50 (nM)
Lab book: enter the figure in nM, no units written.

Answer with the recorded IC50 for the compound listed here: CCc1c(F)ccc2cc(O)cc(-c3ncc4c(N5CCC(C(=O)n6ccc(C)n6)CC5)nc(OC[C@@]56CCCN5C/C(=C\F)C6)nc4c3F)c12 [Example 70] 5100

Answer with the recorded IC50 for the compound listed here: CCc1c(F)ccc2cc(O)cc(-c3ncc4c(N5CC[C@@H](C(=O)n6ccc(C)n6)[C@@H](C)C5)nc(OC[C@@]56CCCN5C[C@H](F)C6)nc4c3F)c12 [Example 79] 1450

Answer with the recorded IC50 for the compound listed here: CCc1c(F)ccc2cc(O)cc(-c3ncc4c(N(C)CCCC(=O)n5ccc(C)n5)nc(OC[C@@]56CCCN5C[C@H](F)C6)nc4c3F)c12 [Example 110] 1320

Answer with the recorded IC50 for the compound listed here: CCc1c(F)ccc2cc(O)cc(-c3ncc4c(N5C[C@H]6CC(C(=O)n7ccc(C)n7)C[C@@H]6C5)nc(OC[C@@]56CCCN5C[C@H](F)C6)nc4c3F)c12 [Example 115] 2670

Answer with the recorded IC50 for the compound listed here: Cc1ccn(C(=O)CCCCNc2nc(OC[C@@]34CCCN3C[C@H](F)C4)nc3c(F)c(-c4ccc(F)c5sc(N)c(C#N)c45)c(Cl)cc23)n1 [Example 262] 593

Answer with the recorded IC50 for the compound listed here: CCc1c(F)ccc2cc(O)cc(-c3ncc4c(N5CCC(C(=O)N(C)C(C)=O)C5)nc(OC[C@@]56CCCN5C[C@H](F)C6)nc4c3F)c12 (some centres unmarked) [Example 274] 287

Answer with the recorded IC50 for the compound listed here: CCc1c(F)ccc2cc(O)cc(-c3ncc4c(N(C)CCN(C)C(=O)n5ccnn5)nc(OC[C@@]56CCCN5C[C@H](F)C6)nc4c3F)c12 (single isomer, unassigned) [Example 208] 854

Answer with the recorded IC50 for the compound listed here: Cc1ccn(C(=O)[C@@H]2CCCN(c3nc(OC[C@@]45CCCN4C[C@H](F)C5)nc4c(F)c(-c5ccc(F)c6sc(N)c(C#N)c56)c(Cl)cc34)CC2)n1 (atropisomer, axis not shown; (aS)) [Example 171] 3040

Answer with the recorded IC50 for the compound listed here: CCc1c(F)ccc2cc(O)cc(-c3ncc4c(N5CCC(C(=O)n6ccc(OC)n6)CC5)nc(OC[C@@]56CCCN5C[C@H](F)C6)nc4c3F)c12 [Example 61] 2610

Answer with the recorded IC50 for the compound listed here: CC(=O)N(C)C(=O)[C@@H]1C[C@@H]2CN(c3nc(OC[C@@]45CCCN4C[C@H](F)C5)nc4c(F)c(-c5ccc(F)c6sc(N)c(C#N)c56)c(Cl)cc34)C[C@@H]2C1 [Example 237] 70

----------
study.system: KRas G12C (Homo sapiens, UniProt P01116, G12C)
Construct: Biotinylated KRas (corresponding to amino acids 1-169, produced at Accelegan Inc.); biotin (biotinylated); purchased Accelegan Inc
Sequence (P01116 1-169 isoform P01116-2 G12C): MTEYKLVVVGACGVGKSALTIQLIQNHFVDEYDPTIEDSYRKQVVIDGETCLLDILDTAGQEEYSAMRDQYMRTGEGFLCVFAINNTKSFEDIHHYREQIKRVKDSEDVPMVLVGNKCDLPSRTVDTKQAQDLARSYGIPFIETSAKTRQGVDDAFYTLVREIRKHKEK
protocol.notes: KRas binding assay, TR-FRET displacement of Cy5 labelled tracer
assay.setup: 60-minute incubation at room temperature, 1% DMSO, pH 7.5
For each record, check the reported IC50: if it is below 400 nM write class 1, else write class 0.

Confirm or reject: IC50 of O=C(Oc1ccc(F)cc1F)C1CCN(c2nc(OCC34CCCN3CCC4)nc3c(F)c(-c4cccc5cccc(F)c45)ncc23)CC1 lies strictly below 400 nM class 1

Confirm or reject: IC50 of COC(=O)C1CCN(c2nc(OCC34CCCN3CCC4)nc3c(F)c(-c4cccc5cccc(F)c45)ncc23)CC1 lies strictly below 400 nM class 0

Confirm or reject: IC50 of CCc1c(F)ccc2cc(O)cc(-c3ncc4c(N5CCCC(C(=O)n6ccc(C)n6)CC5)nc(OC[C@@]56CCCN5C[C@H](F)C6)nc4c3F)c12 (stereo partly drawn) lies strictly below 400 nM class 1

Confirm or reject: IC50 of CCc1c(F)ccc2cc(O)cc(-c3ncc4c(N5CC(CC(=O)N(C)C(C)=O)C5)nc(OC[C@@]56CCCN5C[C@H](F)C6)nc4c3F)c12 lies strictly below 400 nM class 1

Confirm or reject: IC50 of O=C(Oc1c(F)cccc1F)[C@@H]1[C@@H]2C[C@H]1CN(c1nc(OCC34CCCN3CCC4)nc3c(F)c(-c4cccc5cccc(F)c45)ncc13)C2 lies strictly below 400 nM class 0

Confirm or reject: IC50 of CCc1c(F)ccc2cc(O)cc(-c3ncc4c(N5CCC(C(=O)N(C)C(=O)C(C)(C)C)CC5)nc(OC[C@@]56CCCN5C[C@H](F)C6)nc4c3F)c12 lies strictly below 400 nM class 0

Confirm or reject: IC50 of CCc1c(F)ccc2cc(O)cc(-c3ncc4c(N5CCC(C(=O)n6cc(C(C)C)cn6)CC5)nc(OC[C@@]56CCCN5C[C@H](F)C6)nc4c3F)c12 lies strictly below 400 nM class 1

Confirm or reject: IC50 of CCc1c(F)ccc2cc(O)cc(-c3ncc4c(N5CCN(C(=O)n6ccnn6)CC5)nc(OC[C@@]56CCCN5C[C@H](F)C6)nc4c3F)c12 lies strictly below 400 nM class 1

Confirm or reject: IC50 of Cc1ccn(C(=O)C2CCCN(c3nc(OC[C@@]45CCCN4C[C@H](F)C5)nc4c(F)c(-c5c(C#N)c(N)cc(C)c5C(F)(F)F)c(Cl)cc34)CC2)n1 (stereo partly drawn) lies strictly below 400 nM class 1

Confirm or reject: IC50 of N#Cc1cccc(OC(=O)C2CCN(c3nc(OCC45CCCN4CCC5)nc4c(F)c(-c5cccc6cccc(F)c56)ncc34)CC2)c1 lies strictly below 400 nM class 0

Confirm or reject: IC50 of CN(C(=O)CCCN(C)c1nc(OC[C@@]23CCCN2C[C@H](F)C3)nc2c(F)c(-c3ccc(F)c4sc(N)c(C#N)c34)c(Cl)cc12)C(=O)c1cnn(C)c1 lies strictly below 400 nM class 1

Confirm or reject: IC50 of O=C(Oc1c(F)cccc1F)C1CCN(c2nc(OCC34CCCN3CCC4)nc3c(F)c(-c4cccc5cccc(F)c45)ncc23)CC1 lies strictly below 400 nM class 1

----------
study.system: KRas G12C (Homo sapiens, UniProt P01116, G12C)
Construct: Biotinylated KRas (corresponding to amino acids 1-169, produced at Accelegan Inc.); biotin (biotinylated); purchased Accelegan Inc
protocol.notes: KRas binding assay, TR-FRET displacement of Cy5 labelled tracer
assay.setup: 60-minute incubation at room temperature, 1% DMSO, pH 7.5
For each record, check the reported IC50: if it is below 10 nM write yes (1), else write no (0).

Confirm or reject: IC50 of Cc1ccn(C(=O)CCNc2cc(O[C@@H](C)[C@@H]3CCCN3C)nc(-c3noc([C@@]4(C)CCCc5sc(N)c(C#N)c54)n3)n2)n1 lies strictly below 10 nM yes (1)

Confirm or reject: IC50 of CCc1c(F)ccc2cc(O)cc(-c3ncc4c(N(C)CCCC(=O)NC(C)=O)nc(OC[C@@]56CCCN5C[C@H](F)C6)nc4c3F)c12 lies strictly below 10 nM no (0)

Confirm or reject: IC50 of Cc1ccn(C(=O)C2CCCN(c3nc(OC[C@@]45CCCN4C[C@H](F)C5)nc4c(F)c(-c5csc6ccc(N)nc56)c(Cl)cc34)CC2)n1 (stereo partly drawn) lies strictly below 10 nM no (0)

Confirm or reject: IC50 of CC(=O)N(C)C(=O)C1CCN(c2nc(OC[C@@]34CCCN3C[C@H](F)C4)nc3c(F)c(-c4ccc(F)c5sc(N)c(C#N)c45)c(Cl)cc23)CC1 [Example 253] lies strictly below 10 nM yes (1)

Confirm or reject: IC50 of O=C(Oc1ccccc1F)C1CCCN(c2nc(OCC34CCCN3CCC4)nc3c(F)c(-c4cccc5cccc(F)c45)ncc23)C1 (stereo not drawn) lies strictly below 10 nM no (0)

Confirm or reject: IC50 of CCc1c(F)ccc2cc(O)cc(-c3ncc4c(N(CC)CCCC(=O)n5ccc(C)n5)nc(OC[C@@]56CCCN5C[C@H](F)C6)nc4c3F)c12 lies strictly below 10 nM yes (1)
